- protocol-text: qHTS assay to identify small molecule agonists of the estrogen receptor beta (ER-beta) signaling pathway - cell viability counter screen (AID 1259380); note: nearly all actives have a fitted effect of over 30% in size
- recorded-conditions: ER-beta-bla HEK293T viability, CellTiter-Glo luminescence, 16 h; series mostly up to 92.4 µM
Results filed as inconclusive are left out. The source made the active and inactive calls. Calls come from the whole dose curve; as a rule, active = well fitted cell-killing curve with a large enough effect in the repeat runs; inconclusive = weak or mixed curves, or effect the other way; inactive = flat fitted curve, though single readings scatter.
Output constraint: value belongs to T for active, F for inactive

// param item: CC(C)CON=O ; yields the recorded call
F

Queued: CC(C)=CC1C(C(=O)OCc2cccc(Oc3ccccc3)c2)C1(C)C (stereo not given)
F

Would you mind doing CNC(=O)CSP(=S)(OC)OC as well?
F

What do you have for COc1ccc(C=O)cc1OC ?
F

Repeat with C[C@]12CC[C@H]3[C@@H](CCC4=CC(=O)CC[C@@H]43)[C@@H]1CC[C@@H]2O
F

Quick one: O=C(O)CF
F

Also need c1ccc(C2CO2)cc1 (stereo not given) , thanks.
F

Now consider CNC(=O)Oc1cccc2c1OC(C)(C)C2 .
F

Repeat for the following molecule: [Cl-].[Cl-].[Cl-].[Fe+3]
F

Also check CCNCC
F

Then C=C(C)C#N ?
F

Consider next the molecule COP(=S)(OC)Oc1ccc(Sc2ccc(OP(=S)(OC)OC)cc2)cc1 in the same way.
F

And CC(C)(c1ccccc1)c1ccc(O)cc1 ?
T

CN(C)P(=O)(N(C)C)N(C)C , same question.
F

// next record COC(=O)Nc1nc2ccccc2[nH]1
F
